System: rat adjuvant arthritis
Experiment notes: Action on rat adjuvant arthritis (paw swelling inhibition)
Format: in vivo, male Lewis rats
Stated conditions: 10 mg/kg oral once daily for 17 days; measured 3 days after adjuvant inoculation; mean of 4 rats (standard error)
Endpoint name: Swelling inhibition (%), Primary inflammation (inoculated paw)

Recorded Swelling inhibition (%), Primary inflammation (inoculated paw), per entry:
1) CS(=O)(=O)c1ccc(-c2cc(C(=N)Nc3cccc(F)c3)sc2-c2ccc(F)cc2)cc1
23.5 (4.75) %
2) CS(=O)(=O)c1ccc(-c2cc(C(=N)Nc3ccc(Cl)c(Cl)c3)sc2-c2ccc(F)cc2)cc1
27.4 (7.02) %
3) CS(=O)(=O)c1ccc(-c2cc(C(=N)Nc3ccc(F)c(Cl)c3)sc2-c2ccc(F)cc2)cc1
27.9 (3.09) %
4) CS(=O)(=O)c1ccc(-c2cc(C(=N)Nc3ccc(Cl)cc3)sc2-c2ccc(F)cc2)cc1
32.7 (7.40) %
5) COc1ccc(NC(=N)c2cc(-c3ccc(S(C)(=O)=O)cc3)c(-c3ccc(F)cc3)s2)cc1
35.0 (10.1) %
6) CS(=O)(=O)c1ccc(-c2cc(C(=N)Nc3ccc(F)cc3)sc2-c2ccc(F)cc2)cc1
26.3 (4.37) %

Field request: Swelling inhibition (%), Primary inflammation (inoculated paw) | item: CS(=O)(=O)c1ccc(-c2cc(C(=N)Nc3ccc(F)cc3F)sc2-c2ccc(F)cc2)cc1
18.2 (2.73) %

Field request: Swelling inhibition (%), Primary inflammation (inoculated paw) | item: CS(=O)(=O)c1ccc(-c2cc(C(=N)Nc3ccccc3)sc2-c2ccc(F)cc2)cc1
22.6 (5.24) %

---

Tested on: rat adjuvant arthritis
Experiment notes: Action on rat adjuvant arthritis (paw swelling inhibition)
Type: in vivo, male Lewis rats
Stated conditions: 10 mg/kg oral once daily for 17 days; measured 3 days after adjuvant inoculation; mean of 4 rats (standard error)
Quick list: Swelling inhibition (%), Primary inflammation (inoculated paw) per entry.

1) CS(=O)(=O)c1ccc(-c2cc(C(=N)Nc3ccccc3Cl)sc2-c2ccc(F)cc2)cc1
22.1 (4.94) %
2) CS(=O)(=O)c1ccc(-c2cc(C(=N)Nc3ccc(Cl)cc3Cl)sc2-c2ccc(F)cc2)cc1
16.7 (3.25) %

Request body: readout Swelling inhibition (%), Primary inflammation (inoculated paw), system rat adjuvant arthritis, query CS(=O)(=O)c1ccc(-c2cc(C(=N)Nc3ccc(Br)cc3)sc2-c2ccc(F)cc2)cc1 . Return the value.
36.1 (6.36) %

Attribution: patent US6048890A
